Target: T1, 4H380-AA
T1 chain: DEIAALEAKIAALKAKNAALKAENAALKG
Experiment: two-hybrid library CCmax;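 note: natural log of median RNA to DNA barcode read ratio; higher means stronger binding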
Details: mean of both orientations
assay metric: interaction score
Answer with a number only.

Sample records with interaction score:
binder="DENAALEAKNAALEAKIAALKAKIAALKG [4H1454-AA]" reported_measurement=-1.14
binder="DEIAALEAENAALEAEIAALEAKIAALEG [4H133-AA]" reported_measurement=-1.13
binder="DKNAALEAEIAALEAENAALEAKIAALKG [4H3094-AA]" reported_measurement=1.51
binder="DENAALEAKIAALKAEIAALKAKNAALKG [4H1360-AA]" reported_measurement=-1.11
binder="DKIAALKAEIAALEAKIAALKAENAALKG [4H2604-AA]" reported_measurement=1.01

Please find the next binder below.
interaction score reading for DENAALEAENAALKAKIAALKAEIAALEG [4H1257-AA] : -1.14
